- Experimental Details: Initial plasma concentration in Balb/c mouse at 3 mg/kg, iv by LC-MS/MS analysis
- Type: ADME, organism-based
- Set-up: dose 3 mg/kg, route intravenous
Readout: C0 (ng/mL)

>>> recorded_number("NC(=O)c1c(F)ccc(OC(CO)c2nc(-c3ccc(C(F)(F)F)cc3)c(Br)o2)c1F (racemic)")
4200
>>> recorded_number("CC(Oc1ccc(F)c(C(N)=O)c1F)c1nc(-c2ccc(OC(F)(F)F)cc2)c(Br)o1 (racemic)")
2500
>>> recorded_number("CC(Oc1ccc(F)c(C(N)=O)c1F)c1nc(-c2ccc(C(F)(F)F)cc2)c(Br)o1 (racemic)")
2000
>>> recorded_number("CCCc1oc(COc2ccc(F)c(C(N)=O)c2F)nc1-c1ccc(Cl)cc1")
1200
>>> recorded_number("CCc1oc(COc2ccc(F)c(C(N)=O)c2F)nc1-c1ccc(OC)cc1")
1100
>>> recorded_number("CC(Oc1ccc(F)c(C(N)=O)c1F)c1nc(-c2ccc(OC(F)(F)F)cc2)c(Cl)o1 (racemic)")
2100

* * *

- Tested Target: Cell division protein FtsZ (Staphylococcus aureus)
- Experimental Details: Inhibition of Staphylococcus aureus ATCC 29213 FtsZ-mediated cell division phenotype
Binary label based on MIC with cut-off 0.2 µg/mL: below gives 1 (yes), not below gives 0 (no).

>>> discrete_label("CCOc1oc(COc2ccc(F)c(C(N)=O)c2F)nc1-c1ccc(Cl)cc1")
"1 (yes)"
>>> discrete_label("NC(=O)c1c(F)ccc(OCc2nc(-c3ccc(OC(F)(F)F)cc3)c(I)o2)c1F")
"1 (yes)"
>>> discrete_label("Cc1nnc(CC(Oc2ccc(F)c(C(N)=O)c2F)c2nc(-c3ccc(C(F)(F)F)cc3)c(Br)o2)o1 (racemic)")
"0 (no)"
>>> discrete_label("COc1ccc(-c2nc(COc3ccc(F)c(C(N)=O)c3F)oc2-c2ccccc2)cc1")
"1 (yes)"
>>> discrete_label("CN(C)CCC(Oc1ccc(F)c(C(N)=O)c1F)c1nc(-c2ccc(C(F)(F)F)cc2)c(Br)o1 (racemic)")
"0 (no)"
>>> discrete_label("NC(=O)c1c(F)ccc(OCc2nc(-c3ccc(Cl)cc3)c([N+](=O)[O-])o2)c1F")
"0 (no)"
>>> discrete_label("COc1ccc(-c2coc(COc3ccc(F)c(C(N)=O)c3F)n2)cc1")
"0 (no)"
>>> discrete_label("CCc1oc(COc2ccc(F)c(C(N)=O)c2F)nc1-c1ccc(OC)cc1")
"1 (yes)"
>>> discrete_label("NC(=O)c1c(F)ccc(OC(CO)c2nc(-c3ccc(Cl)cc3)c(Br)o2)c1F (racemic)")
"0 (no)"
>>> discrete_label("CC(Oc1ccc(F)c(C(N)=O)c1F)c1nc(-c2ccc(OC(F)(F)F)cc2)c(Cl)o1 (racemic)")
"0 (no)"
>>> discrete_label("NC(=O)c1c(F)ccc(OCc2nc(-c3ccc(OC(F)(F)F)cc3)c(Br)o2)c1F")
"1 (yes)"
>>> discrete_label("NC(=O)c1c(F)ccc(OCc2nc(-c3ccc(Cl)cc3)c(CO)o2)c1F")
"0 (no)"
>>> discrete_label("NC(=O)c1c(F)ccc(OC(CCCO)c2nc(-c3ccc(C(F)(F)F)cc3)c(Br)o2)c1F (racemic)")
"0 (no)"

* * *

- Experimental Details: Clearance in Balb/c mouse at 3 mg/kg, iv by LC-MS/MS analysis
- Type: ADME, organism-based
- Parameters: dose 3 mg/kg, route intravenous
- Test Context: in vivo
Label -1 if clearance falls below 30 mL/min/kg; label 1 in every other case.

>>> discrete_label("CCc1oc(COc2ccc(F)c(C(N)=O)c2F)nc1-c1ccc(OC)cc1")
1
>>> discrete_label("CC(Oc1ccc(F)c(C(N)=O)c1F)c1nc(-c2ccc(OC(F)(F)F)cc2)c(Cl)o1 (racemic)")
1
>>> discrete_label("CC(Oc1ccc(F)c(C(N)=O)c1F)c1nc(-c2ccc(OC(F)(F)F)cc2)c(Br)o1 (racemic)")
1
>>> discrete_label("CCCc1oc(COc2ccc(F)c(C(N)=O)c2F)nc1-c1ccc(Cl)cc1")
1
>>> discrete_label("NC(=O)c1c(F)ccc(OC(CO)c2nc(-c3ccc(C(F)(F)F)cc3)c(Br)o2)c1F (racemic)")
-1
>>> discrete_label("CC(Oc1ccc(F)c(C(N)=O)c1F)c1nc(-c2ccc(C(F)(F)F)cc2)c(Br)o1 (racemic)")
-1

The reported numbers originate from ChEMBL document CHEMBL3098047.
